# test-details: A CellTox Green Cytotoxicity Assay to monitor cytotoxicity in HEK293 cells - 8 hour (AID 1224884); further: nearly all actives have a fitted effect of over 35% in size
# condition-label: CellTox Green fluorescence; series mostly up to 76.8 µM
Results filed as inconclusive are left out. Active and inactive are the calls of the source. The call rests on the fitted dose curve; in most records, active means well fitted activation curve with a large enough effect in the repeat runs; inconclusive means weak or mixed curves; inactive means flat fitted curve, though single readings scatter.
API: response.call in y = active, n = inactive

Take a look at these entries with their results.
>>> print(df.to_string())
                                   compound  label
0  OC[C@H]1O[C@H](O[C@H]2O[C@H](CO)[C@@H](O)[C@H](O)[C@H]2O)[C@H](O)[C@@H](O)[C@@H]1O      n
1                             S=c1nccc[nH]1      n
2  CC(C)=CCNc1ncnc2c1ncn2[C@@H]1O[C@H](CO)[C@@H](O)[C@H]1O      n
3                    CCCCCCCC/C=C\CCCCCCCCN      y
4  CN1CCC[C@@H]1CCO[C@](C)(c1ccccc1)c1ccc(Cl)cc1      n
5  CCCCC(CC)CN1CN(CC(CC)CCCC)CC(C)(N)C1 (configuration not stated)      y

QUERY: Look up the recorded call for "O[C@@H]([C@H](O)[C@H](O)CBr)[C@H](O)CBr" in this test.
RESULT: n

QUERY: Look up the recorded call for "O=C(O)c1ccc2cc(C(=O)O)ccc2c1" in this test.
RESULT: n

QUERY: Look up the recorded call for "COC1=C(OC)C(=O)C(CCCCCCCCCCO)=C(C)C1=O" in this test.
RESULT: n

QUERY: Look up the recorded call for "COc1ccc2cc1Oc1ccc(cc1)C[C@H]1c3c(cc4c(c3Oc3cc5c(cc3OC)CCN(C)[C@@H]5C2)OCO4)CCN1C" in this test.
RESULT: n

QUERY: Look up the recorded call for "CC[N+](CC)(CC)CCOc1ccc(/C=C/c2ccccc2)cc1" in this test.
RESULT: n

QUERY: Look up the recorded call for "C=CC(=O)Nc1cc2c(Nc3ccc(F)c(Cl)c3)ncnc2cc1OCCCN1CCOCC1" in this test.
RESULT: n

QUERY: Look up the recorded call for "Cc1c(C)c2c(c(C)c1OC(=O)c1cccnc1)CC[C@@](C)(CCC[C@H](C)CCC[C@H](C)CCCC(C)C)O2" in this test.
RESULT: n

* * *

# test-details: A CellTox Green Cytotoxicity Assay to monitor cytotoxicity in HEK293 cells - 16 hour (AID 1224888); further: nearly all actives have a fitted effect of over 35% in size
# condition-label: CellTox Green fluorescence; series mostly up to 76.8 µM
Inconclusive results are not listed. Active and inactive are the calls of the source. Calls follow the shape of the dose curve; as a rule, active = well fitted activation curve with a large enough effect in the repeat runs; inconclusive = weak or mixed curves; inactive = flat fitted curve, though single readings scatter.
API: response.call in Y (active), N (inactive)

Take a look at these entries with their results.
                                   molecule  label
0    CCCCCCCCCCOC(=O)c1ccccc1C(=O)OCCCCCCCC      N
1                       CC1=Nc2ccccc2C1(C)C      N
2  CC[N+](CC)(CC)CCOc1ccc(/C=C/c2ccccc2)cc1      N
3  CN(C)c1ccc(C(=C2C=CC(=[N+](C)C)C=C2)c2ccc(N(C)C)cc2)cc1      N
4                     CCCC[P+](C)(CCCC)CCCC      N

QUERY: Look up the recorded call for "CCCC(=O)OCCc1ccccc1" in this test.
RESULT: Y

QUERY: Look up the recorded call for "O=C(O)CN(CCN(CC(=O)O)CC(=O)O)CC(=O)O" in this test.
RESULT: Y

QUERY: Look up the recorded call for OC1CCCc2ccccc21 (stereo unspecified) in this test.
RESULT: N

QUERY: Look up the recorded call for "O=S(=O)(O)c1ccccc1/C=C/c1ccc(-c2ccc(/C=C/c3ccccc3S(=O)(=O)O)cc2)cc1" in this test.
RESULT: N

QUERY: Look up the recorded call for "Cc1ccc(N/N=c2\c(=O)cc/c(=N\Nc3ccc(S(=O)(=O)O)cc3)c2=O)c(C)c1" in this test.
RESULT: N

QUERY: Look up the recorded call for CCO[C@@H]1O[C@H](C(COCc2ccccc2)OCc2ccccc2)[C@H](OCc2ccccc2)[C@H]1O (stereo partly specified) in this test.
RESULT: N

* * *

# test-details: qHTS assay to identify small molecule antagonists of the androgen receptor (AR) signaling pathway using the MDA cell line in the presence of 0.5 nM R1881 - cell viability counter screen (AID 1259242); further: nearly all actives have a fitted effect of over 45% in size; further: potency means the concentration at half of the fitted maximal effect
# condition-label: MDA-kb2 viability, CellTiter-Fluor protease fluorescence, 16 h; series mostly up to 92.4 µM
Results filed as inconclusive are left out. The source made the active and inactive calls. The call rests on the fitted dose curve; in most records, active means well fitted cell-killing curve with a large enough effect in the repeat runs; inconclusive means weak or mixed curves, or effect the other way; inactive means flat fitted curve, though single readings scatter.
measure: Potency

                                smiles_data  measure    recorded_value
0               C[Si](Cl)(c1ccccc1)c1ccccc1  Potency          inactive
1  CCCCCCCCCCCCOCCOCCOCCOCCOCCOCCOCCOCCOCCO  Potency  21.1 µM (active)
2                      Cc1c(N)cccc1C(F)(F)F  Potency          inactive
3           O=[N+]([O-])c1ccc(O)cc1C(F)(F)F  Potency  27.3 µM (active)
4                   CC(C)(C)NSc1nc2ccccc2s1  Potency          inactive

QUERY: Report measured Potency; entry is "C/C=C/C=C/COC(=O)C(C)C"
RESULT: inactive

QUERY: Report measured Potency; entry is "Cc1c(C)c2c(c(C)c1O)CC[C@@](C)(CCC[C@H](C)CCC[C@H](C)CCCC(C)C)O2"
RESULT: inactive

* * *

# test-details: A CellTox Green Cytotoxicity Assay to monitor cytotoxicity in HepG2 cells - 8 hour (AID 1224890); further: nearly all actives have a fitted effect of over 45% in size
# condition-label: CellTox Green fluorescence; series mostly up to 76.8 µM
Results filed as inconclusive are left out. Active and inactive are the calls of the source. Calls follow the shape of the dose curve; as a rule, active = well fitted activation curve with a large enough effect in the repeat runs; inconclusive = weak or mixed curves; inactive = flat fitted curve, though single readings scatter.
measure: outcome

Example results:
>>> df
                                   compound  measure  recorded_value
0                  O=C(O)c1cccc(C(F)(F)F)c1  outcome        inactive
1                      COc1cccc(OC)c1C(=O)O  outcome        inactive
2             Cc1cccc(C)c1NC(=O)c1ccc(N)cc1  outcome        inactive
3                                     [Cu+]  outcome        inactive
4   COC(=O)Nc1nc2ccc(C(=O)c3ccccc3)cc2[nH]1  outcome        inactive
5  CCO[C@@H]1O[C@H](C(COCc2ccccc2)OCc2ccccc2)[C@H](OCc2ccccc2)[C@H]1O (some centres not stated)  outcome        inactive

Continue with the next compound.
QUERY: Report measured outcome; entry is "O=C(O)c1cc(-c2ccc(F)cc2F)ccc1O"
RESULT: inactive

* * *

# test-details: qHTS RealTime-Glo MT Cell Viability Assay in HepG2 cells - 32 hour (AID 1224877); further: nearly all actives have a fitted effect of over 55% in size
# condition-label: RealTime-Glo luminescence; series mostly up to 76.8 µM
Inconclusive results are not listed. Activity calls are given as the source filed them. Calls come from the whole dose curve; as a rule, active = well fitted cell-killing curve with a large enough effect in the repeat runs; inconclusive = weak or mixed curves; inactive = flat fitted curve, though single readings scatter.
measure: outcome

Example results:
>>> df
                                smiles_data  recorded_value
0                  CNc1ccc([N+](=O)[O-])cc1        inactive
1  CC1(C)CCC[C@]2(C)[C@H]3CC(=O)O[C@]3(C)CC[C@@H]12        inactive
2                      Nc1ccc(C(=O)O)c(O)c1        inactive
3                            CCC(=O)C(=O)CC        inactive

QUERY: Report measured outcome; entry is "C#C[C@]1(OC(C)=O)CC[C@H]2[C@@H]3CCC4=C/C(=N/O)CC[C@@H]4[C@H]3CC[C@@]21CC"
RESULT: inactive

QUERY: Report measured outcome; entry is "CN(C)C(=O)COC(=O)Cc1ccc(OC(=O)c2ccc(N=C(N)N)cc2)cc1"
RESULT: inactive

* * *

# test-details: qHTS assay for small molecules that induce genotoxicity in human embryonic kidney cells expressing luciferase-tagged ATAD5 - cell viability (AID 651634); further: nearly all actives have a fitted effect of over 25% in size
# condition-label: HEK293T ATAD5-luc cells viability, CellTiter-Fluor, 15.5 h; series mostly up to 83.3 µM
Results filed as inconclusive are left out. Active and inactive are the calls of the source. Calls come from the whole dose curve.
API: response.call in 1 (active), 0 (inactive)

Take a look at these entries with their results.
>>> df
                                   molecule  label
0                         Cc1ccc(C(=O)O)cc1      0
1                                Oc1ccccc1O      0
2        OC1CCCc2ccccc21 (stereo not drawn)      0
3  CC(C(=O)O)c1ccc2c(c1)[nH]c1ccc(Cl)cc12 (stereo not drawn)      0
4                              CCCCOC(=O)CC      0

QUERY: Look up the recorded call for "CCN(CC)c1ccc2c(-c3ccc(S(=O)(=O)O)cc3S(=O)(=O)[O-])c3ccc(=[N+](CC)CC)cc-3oc2c1" in this test.
RESULT: 1

QUERY: Look up the recorded call for "CCOC(=O)Cn1cccc1-c1nc(-c2ccc(OC)cc2)c(-c2ccc(OC)cc2)s1" in this test.
RESULT: 0

QUERY: Look up the recorded call for "O=C1OC2(c3ccc(O)cc3Oc3cc(O)ccc32)c2ccc(N=C=S)cc21" in this test.
RESULT: 0

src = PubChem BioAssay (Tox21)
